target or system: F protein of hRSV strain A-2 (hRSV strain A-2)
protocol description: cell-based or functional assay
endpoint name: RSV neutralization IC50 (nM)
One number for each entry, in nM.

Please report RSV neutralization IC50 for every entry that follows.
1. Nanobody NC41 (VHH) VHH: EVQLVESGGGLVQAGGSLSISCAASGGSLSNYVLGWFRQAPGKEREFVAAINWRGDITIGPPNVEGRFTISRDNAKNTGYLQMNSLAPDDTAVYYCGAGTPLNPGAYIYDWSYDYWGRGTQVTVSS
2. Nanobody 191D3 (VHH) VHH: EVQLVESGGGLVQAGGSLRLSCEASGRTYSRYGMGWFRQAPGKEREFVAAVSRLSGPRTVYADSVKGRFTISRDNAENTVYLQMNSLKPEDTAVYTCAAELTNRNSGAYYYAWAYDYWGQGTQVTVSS
3. Nanobody 1E4 (VHH) VHH: EVQLVESGGGLVQAGGSLRLSCEASGRTFSSYGMGWFRQAPGKEREFVAAVSRLSGPRTVYADSVKGRFTISRDNAENTVYLQMNSLKPEDTAVYTCAAELTNRNPGAYYYTWAYDYWGQGTQVTVSS
4. Nanobody 7B2 (VHH) VHH: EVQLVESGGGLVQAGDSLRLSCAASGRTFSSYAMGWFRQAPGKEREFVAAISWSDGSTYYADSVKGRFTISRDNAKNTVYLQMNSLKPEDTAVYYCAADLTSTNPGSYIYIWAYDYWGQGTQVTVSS
5. Nanobody NC23 (VHH) VHH: EVQLVESGGGLVQPGGSLRLSCAASGRTFSSIAMGWFRQAPGKEREFVAAISWSRGRTFYADSVKGRFIISRDDAANTAYLQMNSLKPEDTAVYYCAVDTASWNSGSFIYDWAYDHWGQGTQVTVSS
6. Nanobody 15H8 (VHH) VHH: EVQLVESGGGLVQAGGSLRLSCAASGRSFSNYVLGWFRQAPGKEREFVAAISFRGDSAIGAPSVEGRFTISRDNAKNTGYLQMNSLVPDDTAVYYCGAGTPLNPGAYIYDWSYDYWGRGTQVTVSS

A)
1: 26; 2: 227; 3: 298; 4: 177; 5: 109; 6: 218

// provenance: patent US20150118233A1
